- test protocol: soluble on expression in E. coli; label from the status in PepcDB or PDB records
measured endpoint: soluble on expression in E. coli

sequence record	soluble on expression in E. coli
AHHHHHHGSAGIEVQILEKKEDSIKFVLKGVHVSFANALRRTILGEVPTFAVDEVEFYENDSALFDEIIAHRLAMIPLTTPVDRFELDALELDDYTVTLSLEAEGPGIVYSGDLKSDDPDVKPVNPNIPIVKLAEGQRLVFNAYAKLGRGKDHAKWQPGFVYYKYYTIVHISKSIPEWKELKKLAKKRGLPVEETEEEVLVTTIKPFYIPKDFEEYEGKEIWEEIVPNTYIFTVETNGELPVEEIVSIALKILMRKADRFISELQKLTS	soluble
MGSDKIHHHHHHMKLETIDYRAQDSAQRFVESLRETGFGVLSNHPIDKALVDTIYEEWQAFFNSDEKHDYLFKPETHDGFFPADVSETAKGHTVKDIKEYYHVYPWGRIPDSLRENILRYYQEANALAEELLGWVEAHTPAEVAVNYSIALPKMIENSHKTLLRILHYPPMSGDEELGAIRAAAHEDINLLTVLPAANEPGLQVKAKSGEWLDVPSDFGNLIINIGDMLQEASGGYFPSTTHRVVNPEGADKTRSRISLPLFLHPKPEVVLSERYTADSYLMERLRELGVI	not soluble
MYQNFVTKHDTAIQTSRFSVTGNVIPAAPTGNIPVINGGSITAERAVVNLYANMNVSTSSDGSFIVAMKVDTSPTDPNCVISAGVNLSFAGTSYPIVGIVRFESASEQPTSIAGSEVEHYPIEMSVGSGGVCSARDCATVDIHPRTSGNNVFVGVICSSAKWTSGRVIGTIATTQVIHEYQVLQPLK	soluble
MSLTRFQDRQEGERVVDFYMIRDREVKRASNGTDYLNLTLERKLEYIPARLWDATEQHKQALIRRAVVKVDGVVTVYRQQKQLNIQRIRLATDEDPVTVAELISKPGLSREELWHELRMIIEEIQDETLLKLVKTMLGKKEIRERFTTIPASKATHHPYYAGLLEHVVEVCQSILQLSLIYGTINRDVVIAAAILHDIGKVAALHDPFAPEYTDEGEMIGHVVLGVELINQTAQELGISMDEPILLAVKHCILSQREQDEGATSFVYGPKTKEAILLAALDQLNGRLNSFELMASHAEERWTYSPLFKRKMFTPDNDEGHHHHHH	soluble
MNKEEQVMMSLRELFNKMAWLNKLKMEDSLKGYKPSEVHYIECIGKNVDSNVTKLAKSLYMTRGAISKMTKKLIEKNIVESYQKADNKKEIYFRLTEKGHEIYKLHENLHKEFQERDKVVFEQVTDEQFESMLSFIEKYSKHLDSEIKKLGIDTKLE	not soluble

Next, consider the following sequence.
# soluble on expression in E. coli lookup, item MYSDLAGKVVVITGSATGLGRAMGVRFAKEKAKVVINYRSRESEAHDVLEEIKKVGGEAIAVKGDVTVESDVVNLIQSAVKEFGTLDVMINNAGIENAVPSHEMPLEDWNKVINTNLTGAFLGSREAIKYFVEHDIKGSIINMSSVHEKIPWPLFVHYAASKGGVKLMTETLAMEYAPKGIRVNNIGPGAINTPINAEKFADPKKRADVESMIPMGYIGKPEEIAAVATWLASSEASYVTGITLFADGGMTLYPSFQAGRG
not soluble

====

- test protocol: soluble on expression in E. coli; label from the status in PepcDB or PDB records
measured endpoint: soluble on expression in E. coli

In the examples that follow, each entry is paired with its recorded soluble on expression in E. coli.
sequence record	measured endpoint	recorded result
MKRVGKQTWVFDDGVYIQAAAAAVGPLEADGPLGSYFDVCHRDLYCGEATWELAERRLMREAVDCCLQKAGVSAEEVDLLLAGDLLNQNATSNYVARELPIPFLCLFGACSTSMQTLAAAAAFVAGGLADRALAATSSHNATAERQFRYPTELGVQKPKTATFTVTGAGAALVGRAPGRWRVRAATIGKVVDAGLKNPLDMGAAMAPAAADTIEQHFRDLGVSPGDYDLIVTGDLSRVGSVIVRELLAESGYDVTDVYNDCGLMIYRPDQKVFAGGSGCACSAVVTYGYLLQELARGTFRRLFVVATGALLSQTMVQQKQSIPAIAHGVVIEAAGQEPDLPP	soluble on expression in E. coli	not soluble
MSLGEDSEGSGTSGISPGGNSVSEEVLKHRSMVEKYAKESDILDYVPILLAIIQVESGGTMEDVMQSSESAGLPPNSLSTEASIKQGCIYFASLVKSSKELGCDQDSIIQAYNYGGGYLNYVAKNGKKHSFTLAESFSKEKSGGQKVDYPNPIAIKENGGWRYNYGNMFYCLLVKQYLTTTQFDDKTVQGIFDEAFKYEGTAYVFGGSSPATGFDCSGLTQWCYAKVGLKLPRVAQDQYDVMTHIDLKDAKPGDLIFFHSTYDAGTYVTHVGIYAGENRMFHAGNPVGWTNLTESYWQQHLIGAGRYNEGHHHHHH	soluble on expression in E. coli	soluble
MSDDLSAFFAKKKDKKKKSAVKIEEVGQALERRAKRQEEYEQESEDVSEKRVEEEKAVNPNEESEWIEYGESQGRLDGLKIKDMGLESEQDQVNNEEPEDREVHETKTWGQVSSEKKATEEPEQAVTISDKAMAAAYKPPAMRRPGAPYRPRAAAANLDMGSDAAFPSLADASKIEKNKKEESKSPGGWVKAGSGGAWPGSSGPSSSGSSRSYPTTAGSGRDSALAALKMMSAANPAPARNEPAPAPAAAAPASSGAAKAGSYVPPHLRKNQ	soluble on expression in E. coli	not soluble
MSLFVEALKRQNPALISAALSLWQQGKIAPDSWVIDVDQILENGKRLIETARLYGIELYLMTKQFGRNPWLAEKLLALGYSGIVAVDYKEARVMRRAGLPVAHQGHLVQIPCHQVADAVEQGTDVITVFTLDKAREVSAAAVKAGRIQSVLLKVYSDDDFLYPGQESGFALKVLPEIVAEIQNLPGLHLAGLTHFPCLLWDEAVGKVLPTPNLHTLIQARDQLAKSGIALEQLNAPSATSCTSLPLLAQYGVTHAEPGHALTGTIPANQQGDQPERIAMLWLSEISHHFRGDSYCYGGGYYRRGHAQHALVFTPENQKITETNLKTVDDSSIDYTLPLAGEFPVSSAVVLCFRTQIFVTRSDVVLVSGIHRGEPEIVGRYDSLGNSLGAEGHHHHHH	soluble on expression in E. coli	soluble

# soluble on expression in E. coli lookup, item MGSDKIHHHHHHMCQRAIANIDISKEYDESMGSNDVHYQSFARMADFFGRDMQAHRHDQFFQMHFLDTGQIELQLDDHRYSVQAPLFVLTPPSVPHAFITESDSDGHVLTVREELVWPLLEVLYPGTREAFGLPGICLSLADKPNELAALKHYWQLIERESTEQLAGCEHTLVLLAQAVFTLLLRNAKLDDHAATGMRGELKLFQRFTLLIDNHFHQHWTVPDYACELHITESRLTDICRRFANRPPKRLIFDRQLREAKRLLLFSDNAVNEIAWQLGFKDPAYFARFFNRLAGCSPSQFRQREVPSFLN
not soluble

====

- test protocol: soluble on expression in E. coli; label from the status in PepcDB or PDB records
measured endpoint: soluble on expression in E. coli

sequence record	recorded result
MAIKLKSPWEIERMREAGALLTEVVEEVARHVEPGVSTWELDQIAYEAIRKRKAKPAFLGLYGFPATLCTSVNEVVVHGIPSKEPLKEGDILSVDVGLIYQGFAADMARTFPVGRVSPEAERLIRDTEAAFWEGMKYLRPGFRLGDVGHAIQTFLESRGYGVVREFVGHGVGREIHEDPQVPNFGKPGTGPKIRPGMTLALEPMVTLRPAPVVILDDGWAASAGRGNLAAHYENTVLVTEEGPELLTGVALARAE	soluble
QLKNNAAIQIDRVDNTEITETVSFDAEPTYVDDPEAPAGDETVVEEGAPGTKEVTRTVTTVNGQEESSTVINEVEITAAKPATISRGTKT	not soluble
MMAEFETVNDVKQLNGLALAYIGDAVYEVYVRRHLLAGGSVRPHELHRRAVRYVSARAQARVILALLDEGVLTEEEKDIVRRGRNAKSGTIPKNTDVQTYRHSTAFEALIGYHFLVNNEKRVDELIGRSFAIIEREERALE	not soluble
MGSDKIHHHHHHMNIKDLKYFYHLSQLQSFTKVAEKFQISQPSVSYSVKRLEEQFNCDLIVKDPSHRTFALTQQGNILKRHLERILPEISSAQKEMNRSLAHYSTLGCPPIIINYLLSLLKETNQDLAFLKRIRSIRGGSVELLEQLLQGDLDLSLIGTIEPFYHDELVIKKILHRKLYLIVSKDHLLAKRKKAIAFADVLKENFILLDEHNIHLKAFDYLNQTHQNQAQIFFKSDDVTLIKQMVSHNMGVSLLTDISLTKQDHHLVKIPFKENNKLGFYVNYAYLKSSTLTPDIRHLVDLLDKIAQSF	not soluble
ISKETEEIDEQQVFIDSLSGHAQILYEKYHVLPSITIAQAILESDWGNSELAAKANNLFGVKGNYKGHHVTMETDEVEKGKRKTIRAKFRKYSTFFESMDDHAQLFVRGTSWNKKKYKPVLEAGNYKEAATALQTSGYATDPDYADKISAIVEKYDL	not soluble
DDDDEEEDDFVYFNFNKEKEEKNKNSIHPNDFQIYNSLKYKYHPEYQYLNIIYDIMMNGNKQSDRTGVGVLSKFGYIMKFDLSQYFPLLTTKKLFLRGIIEELLWFIRGETNGNTLLNKNVRIWEANGTREFLDNRKLFHREVNDLGPIYGFQWRHFGAEYTNMYDNYENKGVDQLKNIINLIKNDPTSRRILLCAWNVKDLDQMALPPCHILCQFYVFDGKLSCIMYQRSCDLGLGVPFNIASYSIFTHMIAQVCNLQPAQFIHVLGNAHVYNNHIDSLKIQLNRIPYPFPTLKLNPDIKNIEDFTISDFTIQNYVHHEKISMDMAA	soluble
AKDFEWNFAATLSMDKNKVTRLYGDNDVVYNVDSDRNIQKEGNLFLGESRNTIYIWKTGGIAQEIDMDRLNKINWNGYNVNPGDLYPLDYDNNGQIDQNDRVVIGSTDPKFYGGFSTDFSWKGLSLNAVFSYSYGAKKLSPWYETLIGSTGSGVASTDLLDRWTPENTDAEFPRVLAGFDYNHYGASSMDFSVQKASFLRLSALTLAYTFPTKVINALKLTNLRVYATGSNLFCLTNYNGYDPETGDWYPPTRMYTFGLNLAF	not soluble
MSQDNSEELIKVEKVEAFFYPIHGIPTMVLYLEDGREFKMFQIPPEIVIALNRLQEKRDYEELLRGDKRENIYDVLAFSSEIKDQLSKIINRVIINDVNEEYGVYIATVEFKFDGVIIEKQLIPSHAVFLAIVSNRPIYVKKNLVDEQEKQERKSGEDV	soluble

Next, consider the following sequence.
# soluble on expression in E. coli lookup, item MQQEHRECIEQCYECAAACDICASSCLREDNVEMMKHCIQLDMQCAAICRLAAQFMALESEYSQKLCRLCADICKACAEECARHDHDHCQNCARACSQCADACLKMAALEHHHHHH
not soluble
